measurement.label: melting point

Query: melting point; subject: CC(=O)OCC(C)(C)c1ccc(S(N)(=O)=O)cc1
156 to 158 °C

---
Can you share its melting point? I mean this compound: OCc1ccc(-c2cncc(OC3SCC(O)C(O)C3O)c2)cc1 (stereo not given)
153 °C

Again, but for COc1ccc(C(NC(=O)C(C)c2ccccc2)c2cccc(Nc3c(N)c(=O)c3=O)c2)cc1 (stereo not given)
206 to 209 °C

Then this compound: Cc1cc2oc(=O)c(NC(N)=O)c(-c3ccccc3C)c2cc1Cl
240 to 242 °C

How about this compound: O=C1C[C@H](O)C[C@@H](/C=C/c2cnc3ccccc3c2-c2cccs2)O1
102 to 104 °C

Here is the next compound: Clc1ncnc2c1ncn2CCCN1CCC(COc2ccccc2)CC1
95 to 96 °C

Next entry: O=C(OC1CCCCC1)C1=C(c2ccccc2)C(c2ccccc2)OC1=O (stereo not given)
139 to 142 °C

One more compound: CN1CC(CCNC(=S)NC(=O)c2ccccc2)CC2c3cccc4[nH]cc(c34)CC21 (stereo not given)
205 to 207 °C

Field entry: FC1(F)CCC(n2ncc3c(Br)cncc32)CC1
172 to 173 °C

Now the same for O=C1C(=O)N(CCN2CCN(Cc3ccc(F)cc3)CC2)c2ccccc21
146 to 147 °C
